# Tested on: Dugesia japonica
# procedureDetails: loss of heat-induced scrunching incidence (% planarians (vehicle-normalised)); higher = higher incidence or increase relative to vehicle control
# assayContext: exposure time: 15 min to 3 h acute
Structures can show the parent of a compound that is named as a salt.
Give loss of heat-induced scrunching incidence for every item shown.
Respond with the number and no other words.

Quick one: loss of heat-induced scrunching incidence of CN1C(=O)CN=C(c2ccccc2)c2cc(Cl)ccc21 [diazepam] (3.16 µM) ?
29.2

Same question, O=C(CCCN1CCC(O)(c2ccc(Br)cc2)CC1)c1ccc(F)cc1 [bromperidol] (1 µM) this time
30.4

Same question, CCCCNc1c(C(=O)OCC)c(C)nc2c1cnn2CC [tracazolate hydrochloride] (100 µM) this time
29.2

====

# Test system: Dugesia japonica
# procedureDetails: loss of heat-induced scrunching incidence (% planarians (vehicle-normalised)); higher = higher incidence or increase relative to vehicle control
# assayContext: exposure time: 15 min to 3 h acute
endpointName: loss of heat-induced scrunching incidence

Quick one: loss of heat-induced scrunching incidence of O=C(CCCN1CCC(O)(c2ccc(Cl)cc2)CC1)c1ccc(F)cc1 [haloperidol] (1 µM) ?
≤ 0

Same question, Cc1ncc2n1-c1ccc(Cl)cc1C(c1ccccc1F)=NC2 [midazolam] (10 µM) this time
≤ 0

Same question, O=C1CC2(CCCC2)CC(=O)N1CCCCN1CCN(c2ncccn2)CC1 [buspirone] (3.16 µM) this time
≤ 0

====

Give C-shape incidence for every item shown.
# Test system: Dugesia japonica
# procedureDetails: C-shape incidence (% planarians (vehicle-normalised)); higher = higher incidence or increase relative to vehicle control
# assayContext: exposure time: 15 min to 3 h acute
Where a name gives a salt, the structure may show the parent alone.
Respond with the number and no other words.

Quick one: C-shape incidence of O=C(CCCN1CCC(O)(c2ccc(Br)cc2)CC1)c1ccc(F)cc1 [bromperidol] (1 µM) ?
0

Same question, CN1C(=O)CN=C(c2ccccc2)c2cc(Cl)ccc21 [diazepam] (3.16 µM) this time
0

Same question, [Cl-].[Na+] [sodium chloride] (3470 µM) this time
0

Same question, CN[C@H]1CC[C@@H](c2ccc(Cl)c(Cl)c2)c2ccccc21 [sertraline hydrochloride] (10 µM) this time
0

Same question, O=C(CCCN1CCC(O)(c2ccc(Br)cc2)CC1)c1ccc(F)cc1 [bromperidol] (100 µM) this time
4.76

Same question, O=C(CCCN1CCC(O)(c2ccc(Cl)cc2)CC1)c1ccc(F)cc1 [haloperidol] (3.16 µM) this time
0

Same question, CC(NC(C)(C)C)C(=O)c1cccc(Cl)c1 (stereo not drawn) [bupropion] (31.6 µM) this time
0

Same question, O=C(O)C(=O)O [oxalic acid] (100 µM) this time
0

Same question, O=C(CCCN1CC=C(n2c(=O)[nH]c3ccccc32)CC1)c1ccc(F)cc1 [droperidol] (31.6 µM) this time
29.2

Same question, CN1CC(=O)N=C1NC(=O)Nc1cccc(Cl)c1 [fenobam] (100 µM) this time
0

Same question, O=C(CCCN1CCC(O)(c2ccc(Cl)cc2)CC1)c1ccc(F)cc1 [haloperidol] (10 µM) this time
0

Same question, O=C(O)C(=O)O [oxalic acid] (1000 µM) this time
41.7

Same question, CN1CCN(C2=Nc3cc(Cl)ccc3Nc3ccccc32)CC1 [clozapine] (31.6 µM) this time
29.2
